- Test system: ACHN renal
- PROCEDURE_DETAILS: NCI-60 one-dose screen, 48 h (100 = growth as untreated, 0 = no growth, -100 = all killed)
- MEASUREMENT_CONTEXT: 10 µM unless noted
About 83,000 compounds went through this panel and 20% of them were active in at least one assay; those are over-represented in the sample as a whole.
ENDPOINT_NAME: growth (%)
The answer is to be given in %; state only the numeric part.

COc1ccc(-c2nc3cc(C)ccc3n2CC(=O)N=Nc2c(O)[nH]c3ccc(OC)cc23)cc1 yielded growth of -73.9

Nc1nnc(-c2c[nH]c3ccc(Br)cc23)c(-c2c[nH]c3ncc(Br)cc23)n1 yielded growth of 29.6

Cc1c(C(=O)NNC(=O)Nc2ccc(Cl)cc2)nnn1-c1ccc(Br)cc1 yielded growth of 99.7

COc1ccc(-c2ccnc(SCc3cc4cc(Cl)ccc4[nH]c3=O)n2)cc1 yielded growth of 55

Cc1sc2c(c1C)C(c1ccc(Cl)cc1)=N[C@@H](CC(=O)NCCCCCNC(=O)COc1ccc(C3CCC(=O)NC3=O)cc1)c1nnc(C)n1-2 (some centres not stated) yielded growth of 44

CCOC(=O)C1=C(N)N(c2ccccc2)C2=C(C(=O)CC(C)(C)C2)C1c1ccc([N+](=O)[O-])cc1 (configuration not stated) yielded growth of 87.9

COc1ccc(N2N=C(c3ccc4c(c3)OCO4)CC2c2cccc(NC(=O)CCNS(=O)(=O)c3ccc(Cl)cc3)c2)cc1 (configuration not stated) yielded growth of 24.9

O=C(/C=C/c1ccc(-c2ccccc2)cc1)c1nc2ccccc2n1Cc1ccc(F)cc1 yielded growth of 41.3

O=C1C(=Nc2ccc(F)c(Cl)c2)c2cccc3cccc1c23 yielded growth of 32.2

Cc1cc(C)n(-c2ccc3nnc(-c4ccccc4)n3n2)n1 yielded growth of 104

OCNc1ccc(-n2cnc3cc(-c4ccc(O)cc4)ccc32)cc1C(F)(F)F yielded growth of 12.2

CC1=C(C(=O)c2ccccc2)C(c2cccc3ccccc23)n2c(nc3ccccc32)N1 (configuration not stated) yielded growth of 88.5

Cn1cc(-c2nnc(N)nc2-c2c[nH]c3ccc(F)cc23)c2cccnc21 yielded growth of 54.6

CC1(C)CC[C@]2(C(=O)Nc3ccccc3)CC[C@]3(C)C(=CCC4[C@@]5(C)C[C@@H](O)[C@H](O)[C@@](C)(CO)C5CC[C@]43C)C2C1 (some centres not stated) yielded growth of 59.9

N/C(=N\c1nc2ccccc2s1)NC(=O)Nc1ccc(Cl)cc1Cl yielded growth of -87.4

COCOc1cc2oc(C(=O)N[C@@H](Cc3ccccc3)C(O)C(=O)NCc3ccccc3)c(C)c(=O)c2cc1OCOC (some centres not stated) yielded growth of 66.9

N#Cc1c(-c2ccccc2Cl)cc(-c2c[nH]c3ccccc23)[nH]c1=O yielded growth of 63.9

COc1cc2oc(-c3cccc(C(=O)Nc4ccc(Cl)cc4)c3)cc(=O)c2c(OCCNC(=O)[C@H](CCC(=O)OC(C)(C)C)NC(=O)OC(C)(C)C)c1OC yielded growth of 93.7

O=C1NC(=O)/C(=C/c2ccccc2OCc2cc3ccccc3nc2Cl)S1 yielded growth of 86.2

COc1c(F)ccc(C(=O)Nc2ccc3nc(NC(=O)C4CCCN(S(=O)(=O)c5ccc(C(F)(F)F)cc5)C4)sc3c2)c1F (configuration not stated) yielded growth of 72.3

COc1ccc(C2=NN(c3ccccc3)C(c3ccc(OC)c(OCc4ccccc4)c3)C2)cc1OC (configuration not stated) yielded growth of 110

CC1(C)CC[C@]2(C(=O)Nc3ccc(Br)cc3)CC[C@]3(C)C(=CCC4[C@@]5(C)C[C@@H](O)[C@H](O)[C@@](C)(CO)C5CC[C@]43C)C2C1 (some centres not stated) yielded growth of 17.7

CCC(C)(C)c1ccc(OCCCCN2CCN(c3ccncc3)CC2)cc1 yielded growth of 68.9

CC(C)c1sc(NC(=O)c2cc(NC(=O)c3cc(NC(=O)c4cscn4)cn3C)cn2C)nc1C(=O)NCCCN(C)C yielded growth of 98.7

NS(=O)(=O)c1ccc(-n2cc(-c3cccc(NC(=O)c4ccc(Cl)c(C(F)(F)F)c4)c3)nn2)cc1 yielded growth of 23.2

COc1ccc(C(=O)/C=C/c2ccc(OCc3ccc(F)cc3)c(OC)c2)cc1OC yielded growth of 28.5

C/C(=N\N=C\c1cc([N+](=O)[O-])ccc1Cl)c1ccc2c(c1)Nc1ccccc1S2 yielded growth of -43.5

COC(OC)C1=C(C)OC(N)=C(C#N)C12C(=O)Nc1ccccc12 (configuration not stated) yielded growth of 84.9

C=C1CC[C@@H]2[C@]3(C)COC(c4cn[nH]c4-c4ccc(OC)cc4)O[C@@H]3CC[C@@]2(C)[C@@H]1C/C=C1/C(=O)OCC1O (some centres not stated) yielded growth of 3.82

O=C1Nc2cc(Cl)ccc2/C1=C/c1cccc(OCc2ccccn2)c1 yielded growth of 16.9

COc1cc2c3c(n(CCCN4CCC[C@@H]4CO)c(=O)c2cc1OC)-c1cc2c(cc1C3=O)OCO2 yielded growth of -100

Cc1cc2c(cc1Cl)C(=O)/C(=C/c1ccc(F)cc1)O2 yielded growth of 96.9
